Biological target: Androgen Receptor (Homo sapiens)
Construct: endogenous in cells; host or cells: VCaP cells
Assay: Androgen Receptor ELISA assay (PathScan AR ELISA) in VCaP cells: AR degradation, Dmax and DC50
Assay type: cell-based
Settings: VCaP cells; Table 36; read-out: VCaP DC50
Readout Name: DC50

Known results for compounds:
Cc1ncsc1-c1ccc([C@H](C)NC(=O)[C@@H]2C[C@@H](O)CN2C(=O)[C@@H](NC(=O)CCCCN2C[C@H]3C[C@@H]2CN3c2ccc(C(=O)N[C@H]3C[C@H](Oc4ccc(C#N)c(Cl)c4)C3)cn2)C(C)(C)C)cc1	> 501 nM
Cc1ncsc1-c1ccc([C@H](C)NC(=O)[C@@H]2C[C@@H](OC(=O)OC(C)C)CN2C(=O)[C@@H](NC(=O)COCCCCCNc2ccc(C(=O)N[C@H]3C(C)(C)[C@H](Oc4ccc(C#N)c(Cl)c4)C3(C)C)cc2)C(C)(C)C)cc1	> 501 nM
Cc1ncsc1-c1ccc([C@H](C)NC(=O)[C@@H]2C[C@@H](O)CN2C(=O)[C@H](c2cc(OCCN3CCN(c4ccc(C(=O)N[C@H]5C(C)(C)[C@H](Oc6ccc(C#N)c(Cl)c6)C5(C)C)cn4)CC3)no2)C(C)C)cc1	> 501 nM

The compound C[C@H](NC(=O)C1C[C@@H](O)CN1C(=O)[C@@H](NC(=O)COCCCCCc1ccc(C(=O)N[C@H]2C(C)(C)[C@H](Oc3ccc(C#N)c(Cl)c3)C2(C)C)cc1)C(C)(C)C)c1ccc(Cl)cc1 (stereo partly shown) , tested on Androgen Receptor (Homo sapiens), showed DC50 of < 50 nM

* * *

Measured Dmax, listed per entry.
Target: Androgen Receptor (Homo sapiens, UniProt P10275)
Construct: endogenous in cells; host or cells: VCaP cells
Sequence (P10275 1-920): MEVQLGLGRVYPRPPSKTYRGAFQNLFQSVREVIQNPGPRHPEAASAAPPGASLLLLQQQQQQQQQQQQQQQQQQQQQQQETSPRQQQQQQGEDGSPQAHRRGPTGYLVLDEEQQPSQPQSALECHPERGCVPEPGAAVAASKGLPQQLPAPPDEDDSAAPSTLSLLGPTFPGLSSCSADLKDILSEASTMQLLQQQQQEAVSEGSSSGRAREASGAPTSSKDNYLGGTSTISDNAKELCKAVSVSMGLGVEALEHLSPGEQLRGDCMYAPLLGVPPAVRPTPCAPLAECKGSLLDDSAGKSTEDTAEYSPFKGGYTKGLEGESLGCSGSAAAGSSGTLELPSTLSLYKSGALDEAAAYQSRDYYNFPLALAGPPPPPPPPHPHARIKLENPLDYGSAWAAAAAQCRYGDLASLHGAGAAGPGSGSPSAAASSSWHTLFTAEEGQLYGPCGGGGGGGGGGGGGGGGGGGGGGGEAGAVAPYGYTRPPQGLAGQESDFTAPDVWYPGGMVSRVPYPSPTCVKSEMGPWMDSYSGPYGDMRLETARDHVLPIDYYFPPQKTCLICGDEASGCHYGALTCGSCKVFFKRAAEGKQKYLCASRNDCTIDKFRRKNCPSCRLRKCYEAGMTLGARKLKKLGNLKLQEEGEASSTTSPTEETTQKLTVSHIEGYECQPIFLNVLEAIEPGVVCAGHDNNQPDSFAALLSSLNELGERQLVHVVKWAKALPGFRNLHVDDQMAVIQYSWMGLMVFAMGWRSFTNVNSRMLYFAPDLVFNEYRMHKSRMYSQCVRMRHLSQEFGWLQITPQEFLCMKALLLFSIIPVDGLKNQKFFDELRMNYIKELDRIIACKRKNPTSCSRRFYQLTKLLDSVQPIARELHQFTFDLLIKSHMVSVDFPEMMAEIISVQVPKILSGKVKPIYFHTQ
Test: Androgen Receptor ELISA assay (PathScan AR ELISA) in VCaP cells: AR degradation, Dmax and DC50
Type: cell-based
Conditions: VCaP, read-out: VCaP Dmax (%)

Entry Cc1ncsc1-c1ccc(CNC(=O)[C@@H]2C[C@@H](O)CN2C(=O)[C@@H](NC(=O)CCOCC#CC#CCOc2ccc(N3C(=S)N(c4ccc(C#N)c(C(F)(F)F)c4)C(=O)C3(C)C)cc2)C(C)(C)C)cc1 [Example 55] , Dmax reported as 51 to 70%

For this compound ( Cc1ncoc1-c1ccc(CNC(=O)[C@@H]2C[C@@H](O)CN2C(=O)[C@@H](NC(=O)COCCCOCCCCOc2ccc(N3C(=S)N(c4ccc(C#N)c(Cl)c4)C(=O)C3(C)C)cc2)C(C)C)cc1 [Example 39] ), measured Dmax is 26 to 50%

Cc1cc(C(C(=O)N2C[C@H](O)C[C@H]2C(=O)NCc2ccc(Cl)cc2OCCOCCOCCOc2ccc(N3C(=S)N(c4ccc(C#N)c(C(F)(F)F)c4)C(=O)C3(C)C)cc2)C(C)C)on1 (stereo partly shown) [Example 735] has a reported Dmax of < 25%

In plain terms, Cc1ncsc1-c1ccc([C@H](C)NC(=O)C2C[C@@H](O)CN2C(=O)[C@@H](NC(=O)c2cc3ccc(OC[C@H]4C[C@H](COc5ccc(N6C(=S)N(c7ccc(C#N)c(C(F)(F)F)c7)C(=O)C6(C)C)cc5)C4)cc3o2)C(C)(C)C)cc1 (stereo partly shown) [Example 605] has a documented Dmax of < 25%

Value source: patent US11427548B2
